experiment: In vivo pharmacokinetic study in rats; conditions: rat, plasma, oral, 10 mg/kg
ENDPOINT: Tmax (h)
Please respond with the number in h and leave the unit unwritten.

Worked cases, answers included:
MOLECULE | UNIT_OF_MEASURE | Tmax
C[C@H](NC(=O)c1cn(C)c2ccc(-c3ccn4nc(NC(=O)C5CC5)nc4c3)cc12)c1cccc(F)c1 | h | 1.67
Cn1cc(C(=O)N2CCC[C@H]2c2ccc(F)cc2)c2cc(-c3ccn4nc(NC(=O)C5CC5)nc4c3)ccc21 | h | 0.42

Prompt: I would be grateful if you could share the reported Tmax for Cn1cc(C(=O)N2CCCC2c2cccc(F)c2)c2cc(-c3ccn4nc(NC(=O)C5CC5)nc4c3)ccc21 (stereo not drawn) .
Response: 0.33

Prompt: Please look up its Tmax: C[C@H](NC(=O)c1c[nH]c2ccc(-c3ccc4nc(NC(=O)C5CC5)sc4c3)cc12)c1cccc(F)c1
Response: 4

Prompt: # Tmax lookup, item Cn1cc(C(=O)N2CCC[C@H]2c2ccc(F)c(F)c2)c2cc(-c3ccn4nc(NC(=O)C5CC5)nc4c3)ccc21
Response: 0.33

Prompt: // lookup Tmax for Cn1cc(C(=O)N2CCC[C@H]2c2cccc(Cl)c2)c2cc(-c3ccn4nc(NC(=O)C5CC5)nc4c3)ccc21
Response: 2.25
